Numbers sourced from patent US20230374132A1.

- TARGET: cynomolgus monkey CD3 E&D complex protein (Sino Biological Inc., CT032-00323H) (cynomolgus monkey) (UniProt Q95LI5)
- Sequence (Q95LI5 22-117, chain 1 of 2): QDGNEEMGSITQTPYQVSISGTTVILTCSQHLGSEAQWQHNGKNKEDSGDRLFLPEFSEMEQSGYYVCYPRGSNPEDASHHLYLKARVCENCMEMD
- Sequence (Q95LI8 22-105, chain 2 of 2, further chain): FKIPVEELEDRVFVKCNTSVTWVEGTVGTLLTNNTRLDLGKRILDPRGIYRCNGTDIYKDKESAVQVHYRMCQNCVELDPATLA
- EXPERIMENT_SUMMARY: SPR, antigen on chip
OUTCOME_MEASURE: koff (s⁻¹)

BINDER | READOUT_UNIT | NUMERIC_RESULT
SGN70-sp34.101LH (bispecific antibody, part only; not given: anti-CD70 Fab arm and Fc, not shown: another chain or arm of the molecule; a dimerising Fc or GST; large carriers) scFv: QAVVTQEPSLTVSPGGTVTLTCRSSTGAVTTSNYANWVQQKPGQAPRGLIGGTNKRAPGVPARFSGSLLGDKAALTLLGAQPEDEAEYYCALWYSNLWVFGQGTKLTVLGGGGSGGGGSGGGGSGGGGSEVQLVESGGGLVQPGGSLKLSCAASGFTFNTYAMNWVRQASGKGLEWVGRIRSKYNNYATYYADSVKDRFTISRDDSKSTLYLQMNSLKTEDTAVYYCARHGNFGQSAASWFAYWGQGTTVTVSS | s⁻¹ | 0.144
SGN70-sp34.101HL (bispecific antibody, part only; not given: anti-CD70 Fab arm and Fc, not shown: another chain or arm of the molecule; a dimerising Fc or GST; large carriers) scFv: EVQLVESGGGLVQPGGSLKLSCAASGFTFNTYAMNWVRQASGKGLEWVGRIRSKYNNYATYYADSVKDRFTISRDDSKSTLYLQMNSLKTEDTAVYYCARHGNFGQSAASWFAYWGQGTTVTVSSGGGGSGGGGSGGGGSGGGGSQAVVTQEPSLTVSPGGTVTLTCRSSTGAVTTSNYANWVQQKPGQAPRGLIGGTNKRAPGVPARFSGSLLGDKAALTLLGAQPEDEAEYYCALWYSNLWVFGQGTKLTVL | s⁻¹ | 0.177
SGN70-sp34.87LH (bispecific antibody, part only; not given: anti-CD70 Fab arm and Fc, not shown: another chain or arm of the molecule; a dimerising Fc or GST) scFv: QAVVTQEPSLTVSPGGTVTLTCRSSTGAVTTSNYANWVQQKPGQAPRGLIGGTNKRAPGVPARFSGSLLGDKAALTLLGAQPEDEAEYYCALWYSNLWVFGQGTKLTVLGGGGSGGGGSGGGGSGGGGSEVQLVESGGGLVQPGGSLKLSCAASGFTFNTYAMNWVRQASGKGLEWVGRIRSKYNNYATYYADSVKDRFTISRDDSKSTLYLQMNSLKTEDTAVYYCARHYNFGQSYVSWFAYWGQGTTVTVSS | s⁻¹ | 0.0466
